# study.target: human recombinant serotonin (5-Hydroxytryptamine) 5-HT2A receptor (Homo sapiens, UniProt P28223)
# Construct: expressed in transfected cells; host or cells: CHO-K1
# assay.notes: Serotonin 5-HT2A radioligand binding ([3H]Ketanserin)
# protocol.conditions: compound at 0.1 μM; read-out: Serotonin (0.1 μM) 5-HT2A, percentage inhibition of ligand binding
quantity.measured: inhibition at 0.1 µM (%)
Give the value, in units of %, as a plain number.

Use these answered entries as a reference point.
Cc1cc2c3c(c1)c1c(n3CC(c3ccccc3)O2)CCN(C)C1 (centres unmarked) [Compound 15]: 10
Cc1cc2c3c(c1)c1c(n3CC2)CCN(CCCC(=O)c2ccc(F)cc2)C1 [Compound 13]: 98
CN1CCc2c(c3cccc4c3n2CC(=O)N4)C1 [Compound 5]: -4
CN1CCc2c(c3cccc4c3n2CCS4)C1 [Compound 11]: 27

Ask: State the recorded inhibition at 0.1 µM for this entry: Cc1cc2c3c(c1)c1c(n3C[C@](C)(c3ccncc3)O[C@H]2C)CCN(C)C1 [Compound 163]
Result: 3

Ask: Now the compound CN1CCc2c(c3cccc4c3n2CC(c2ccncc2)C4)C1 (centres unmarked) [Compound 7]
Result: 7

Ask: Now the compound Cc1ccc(C2Cn3c4c(c5cccc2c53)CN(C)CC4)cn1 (centres unmarked) [Compound 210]
Result: 23

Ask: Now the compound Cc1cc2c3c(c1)c1c(n3CC(C)(c3ccncc3)OC(C)C2)CCN(C)C1 (centres unmarked) [Compound 165]
Result: 12

Ask: Now the compound CN1CCc2c(c3cccc4c3n2CC(c2ccc(F)cc2)C4)C1 (centres unmarked) [Compound 16]
Result: 40

Ask: Now the compound CN1CCc2c(c3cccc4c3n2C(c2ccccc2)C(=O)N4)C1 (centres unmarked) [Compound 6]
Result: 12

Ask: Now the compound CN1CCc2c(c3cccc4c3n2CCC4)C1 [Compound 8]
Result: 30

* * *

# study.target: human recombinant serotonin (5-Hydroxytryptamine) 5-HT6 receptor (Homo sapiens)
# Construct: expressed in transfected cells; host or cells: HeLa
# Sequence (P50406 whole entry): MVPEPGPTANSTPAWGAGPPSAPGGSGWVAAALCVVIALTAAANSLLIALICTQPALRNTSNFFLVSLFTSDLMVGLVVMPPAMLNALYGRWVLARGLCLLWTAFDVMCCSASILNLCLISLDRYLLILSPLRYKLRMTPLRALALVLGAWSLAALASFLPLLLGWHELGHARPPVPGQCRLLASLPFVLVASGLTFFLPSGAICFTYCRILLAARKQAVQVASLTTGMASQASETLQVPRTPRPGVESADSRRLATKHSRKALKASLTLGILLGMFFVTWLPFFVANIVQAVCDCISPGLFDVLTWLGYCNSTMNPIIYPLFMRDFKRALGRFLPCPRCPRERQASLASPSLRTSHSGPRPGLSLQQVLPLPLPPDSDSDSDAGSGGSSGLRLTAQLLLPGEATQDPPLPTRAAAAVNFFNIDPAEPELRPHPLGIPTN
# assay.notes: Serotonin 5-HT6 radioligand binding ([3H]LSD)
# protocol.conditions: compound at 1 μM; read-out: Serotonin (1 μM) 5-HT6, percentage inhibition of ligand binding
Quick reference: inhibition at 1 µM of the listed items.
Give the value, in units of %, as a plain number.

Use these answered entries as a reference point.
Cc1cc2c3c(c1)c1c(n3CC(c3ccc(F)cc3)C2)CCN(C)C1 (stereo not shown): 96
Cc1cc2c3c(c1)c1c(n3CC(c3ccc(C)nc3)C2)CCN(C)C1 (stereo not shown): 24
Cc1cc2c3c(c1)c1c(n3CC2c2ccc(F)cc2)CCN(C)C1 (stereo not shown): 57

Now examine the next entry.
Ask: State the recorded inhibition at 1 µM for this entry: `Cc1cc2c3c(c1)c1c(n3CCO2)CCN(C)C1`
Result: 25

* * *

# study.target: human recombinant dopamine D2L receptor (Homo sapiens, UniProt P14416)
# Construct: expressed in transfected cells; host or cells: CHO
# Sequence (P14416 whole entry): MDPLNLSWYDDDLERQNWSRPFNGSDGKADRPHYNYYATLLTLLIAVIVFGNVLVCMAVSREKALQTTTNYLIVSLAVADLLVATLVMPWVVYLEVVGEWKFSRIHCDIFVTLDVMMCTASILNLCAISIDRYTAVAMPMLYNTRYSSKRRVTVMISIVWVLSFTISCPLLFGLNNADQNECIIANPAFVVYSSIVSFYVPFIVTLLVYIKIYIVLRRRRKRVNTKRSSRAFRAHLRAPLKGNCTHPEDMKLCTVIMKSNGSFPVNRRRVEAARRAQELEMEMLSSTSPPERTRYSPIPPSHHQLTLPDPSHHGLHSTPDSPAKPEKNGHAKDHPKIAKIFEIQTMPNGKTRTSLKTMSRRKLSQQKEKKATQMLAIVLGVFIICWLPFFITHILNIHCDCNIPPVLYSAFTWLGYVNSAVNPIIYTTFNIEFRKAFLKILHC
# assay.notes: Dopamine D2L radioligand binding ([3H]Spiperone)
# protocol.conditions: compound at 1 μM; read-out: Dopamine (1 μM) D2L, percentage inhibition of ligand binding
Rule: yes for inhibition at 1 µM not less than 40%, no for anything less.

Answered examples (2):
Cc1cc2c3c(c1)c1c(n3CC(C)(c3ccc(C)nc3)OC(C)C2)CCN(C)C1 (stereo not shown): no
Cc1cc2c3c(c1)c1c(n3C[C@](C)(c3ccncc3)O[C@H]2C)CCN(C)C1: no

Ask: Tell me whether inhibition at 1 µM is at least 40% here: CN1CCc2c(c3cccc4c3n2CC(c2ccncc2)S4)C1 (stereo not shown)
Result: no

Ask: Now the molecule CN1CCc2c(c3cccc4c3n2CC(c2ccncc2)C4)C1 (stereo not shown)
Result: yes

Ask: Now the molecule Cc1cc2c3c(c1)c1c(n3CC(c3ccc(F)cc3)C2)CCN(C)C1 (stereo not shown)
Result: yes

Ask: Now the molecule CN1CCc2c(c3cccc4c3n2CC(c2ccc(F)cc2)C4)C1 (stereo not shown)
Result: yes

Ask: Now the molecule Cc1cc2c3c(c1)c1c(n3CC2c2ccc(F)cc2)CCN(C)C1 (stereo not shown)
Result: no

Ask: Now the molecule `CN1CCc2c(c3cccc4c3n2CC(=O)N4Cc2ccncc2)C1`
Result: no

Ask: Now the molecule Cc1cc2c3c(c1)c1c(n3CC(c3ccccc3)O2)CCN(C)C1 (stereo not shown)
Result: yes

Entry source: patent US9193728B2
